# assayed.target: Cholinesterase (Equus caballus)
# measurement.setup: at 2 mg/mL
# Description: Inhibition of horse BChE at 2 mg/ml by Ellman's method
Binary call on inhibition: MET from 10% upward, NOT MET beneath that.

- compound: "COc1cc(O)c2c(c1)oc(=O)c1c3cc(O)c(O)cc3oc21"
  category.label: "MET"
- compound: "COc1c2c(cc3c1OCO3)CCN(C)C2"
  category.label: "MET"
- compound: "CC1=C[C@]23C(=O)[C@@H](C=C(CO)[C@@H](O)[C@]2(O)[C@H]1O)[C@H]1[C@@H](C[C@H]3C)C1(C)C"
  category.label: "NOT MET"
- compound: "COc1ccc([C@@H]2CC(=O)c3c(O)cc(O)cc3O2)cc1O"
  category.label: "NOT MET"
- compound: "C[C@H]1[C@H]2CC[C@H]3[C@@H]4CC=C5C[C@@H](N(C)C)CC[C@]5(C)[C@H]4CC[C@]23CN1C"
  category.label: "MET"
- compound: "COc1cc(-c2oc3cc(O)cc(O)c3c(=O)c2OC2O[C@H](CO)[C@@H](O)[C@H](O)[C@H]2O)cc(OC)c1O (stereo partly drawn)"
  category.label: "NOT MET"
- compound: "CNC(=O)Oc1ccc2c(c1)[C@]1(C)CCN(C)[C@@H]1N2C"
  category.label: "MET"
- compound: "C[C@@H]1CC[C@H]2[C@H](C)[C@H]3CC[C@@]4(O)[C@@H]5CC(=O)[C@H]6CC(=O)CC[C@]6(C)[C@H]5C[C@H]4[C@@H]3CN2C1 [SEVEDINDIONE]"
  category.label: "MET"

* * *

Catalogue of inhibition values
# assayed.target: UniProt:O42275
# Sequence (O42275 24-633 limits assumed): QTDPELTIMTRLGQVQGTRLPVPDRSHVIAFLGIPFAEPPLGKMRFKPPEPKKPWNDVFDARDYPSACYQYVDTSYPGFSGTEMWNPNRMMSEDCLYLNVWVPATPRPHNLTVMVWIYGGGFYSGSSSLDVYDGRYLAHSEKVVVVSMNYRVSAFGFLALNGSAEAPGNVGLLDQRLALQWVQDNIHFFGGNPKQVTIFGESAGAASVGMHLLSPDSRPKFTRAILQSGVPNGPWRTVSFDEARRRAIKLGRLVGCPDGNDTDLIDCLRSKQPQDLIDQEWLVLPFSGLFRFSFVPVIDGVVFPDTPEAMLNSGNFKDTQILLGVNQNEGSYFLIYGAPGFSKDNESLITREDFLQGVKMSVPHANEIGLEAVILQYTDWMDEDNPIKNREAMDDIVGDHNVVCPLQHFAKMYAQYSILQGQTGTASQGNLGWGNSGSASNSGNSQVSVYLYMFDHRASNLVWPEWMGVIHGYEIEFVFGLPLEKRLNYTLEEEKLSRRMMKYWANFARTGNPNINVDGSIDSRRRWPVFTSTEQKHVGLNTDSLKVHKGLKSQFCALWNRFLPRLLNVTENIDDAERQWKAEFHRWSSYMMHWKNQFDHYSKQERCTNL
# measurement.setup: at 2 mg/mL
# Description: Inhibition of electric eel AChE at 2 mg/ml by Ellman's method
assay.readout: inhibition (%)

- chemical.smiles: "COC(=O)C[C@](O)(CCC(C)(C)O)C(=O)O[C@@H]1C(OC)=C[C@]23CCCN2CCc2cc4c(cc2[C@H]13)OCO4"
  display.unit: "%"
  result.value: -5.71
- chemical.smiles: "COc1ccc(C(=O)O[C@H]2CC[C@@]3(C)[C@@H]4CC[C@H]5[C@]6(O)C[C@H](O)[C@@]7(O)[C@@H](CN8C[C@@H](C)CC[C@H]8[C@@]7(C)O)[C@]6(O)C[C@@]53O[C@]24O)cc1OC"
  display.unit: "%"
  result.value: 21.8
- chemical.smiles: "CN1[C@@H](CC(=O)c2ccccc2)CCC[C@H]1C[C@H](O)c1ccccc1"
  display.unit: "%"
  result.value: -0.17
- chemical.smiles: "C[C@H]1CCC[C@@H](O)CCCCCc2cc(O)cc(O)c2C(=O)O1"
  display.unit: "%"
  result.value: -1.34

* * *

# assayed.target: Cholinesterase (Homo sapiens)
# Sequence (P06276 whole entry): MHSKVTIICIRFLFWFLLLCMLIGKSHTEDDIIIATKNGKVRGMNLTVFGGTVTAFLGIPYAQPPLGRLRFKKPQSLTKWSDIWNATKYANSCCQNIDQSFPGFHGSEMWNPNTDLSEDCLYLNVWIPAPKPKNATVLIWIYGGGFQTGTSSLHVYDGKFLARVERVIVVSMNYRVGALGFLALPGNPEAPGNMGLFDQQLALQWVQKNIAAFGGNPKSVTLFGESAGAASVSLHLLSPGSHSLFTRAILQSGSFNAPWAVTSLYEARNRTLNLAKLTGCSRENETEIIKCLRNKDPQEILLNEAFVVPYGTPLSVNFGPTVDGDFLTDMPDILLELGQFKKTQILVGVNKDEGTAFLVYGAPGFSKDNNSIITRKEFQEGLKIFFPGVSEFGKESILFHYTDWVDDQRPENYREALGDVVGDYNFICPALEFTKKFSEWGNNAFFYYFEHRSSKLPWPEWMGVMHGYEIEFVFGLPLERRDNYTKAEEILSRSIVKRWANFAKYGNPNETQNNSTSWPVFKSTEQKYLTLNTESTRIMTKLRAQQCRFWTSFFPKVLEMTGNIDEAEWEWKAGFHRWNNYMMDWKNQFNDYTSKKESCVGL
# method: Inhibition of human BChE by Ellman's method
# measurement.setup: read-out: IC50
pIC50: −log10 of the molar value.
pIC50 reference

- compound: "CC[C@H]1CN2CCc3c([nH]c4ccccc34)[C@H]2C[C@@H]1/C(=C\\OC)C(=O)OC"
  relation.operator: "="
  pIC50: 5.71
- compound: "O[C@H]1CCN2Cc3ccccc3N=C12"
  relation.operator: "="
  pIC50: 5.50
- compound: "C[C@@H]1CC[C@H]2[C@H](C)[C@H]3CC[C@@]4(O)[C@@H]5CC(=O)[C@H]6CC(=O)CC[C@]6(C)[C@H]5C[C@H]4[C@@H]3CN2C1"
  relation.operator: "="
  pIC50: 6.57
- compound: "COc1ccc2c(c[n+](C)c3c4cc5c(cc4ccc23)OCO5)c1OC [CHELERYTHRINE CHLORIDE]"
  relation.operator: "="
  pIC50: 4.99
- compound: "Cl.Cl.c1ccc2c3c([nH]c2c1)[C@H]1[C@H]2CC[C@H]([C@@H]4CCCN[C@@H]42)N1CC3"
  relation.operator: "="
  pIC50: 5.05
- compound: "C=C[C@H]1C[N@@]2CC[C@H]1C[C@@H]2[C@@H](O)c1ccnc2ccc(OC)cc12"
  relation.operator: "="
  pIC50: 5.91
- compound: "OC1c2ccccc2N=C2CCCN21 (stereo not drawn)"
  relation.operator: "<"
  pIC50: 4.70
- compound: "COC(=O)[C@H]1[C@H]2C[C@H]3c4[nH]c5ccccc5c4CCN3C[C@H]2CC[C@@H]1O.Cl [RAUWOLSCINE HYDROCHLORIDE]"
  relation.operator: "="
  pIC50: 4.86

* * *

# assayed.target: Acetylcholinesterase (Homo sapiens, UniProt P22303)
# Sequence (P22303 whole entry): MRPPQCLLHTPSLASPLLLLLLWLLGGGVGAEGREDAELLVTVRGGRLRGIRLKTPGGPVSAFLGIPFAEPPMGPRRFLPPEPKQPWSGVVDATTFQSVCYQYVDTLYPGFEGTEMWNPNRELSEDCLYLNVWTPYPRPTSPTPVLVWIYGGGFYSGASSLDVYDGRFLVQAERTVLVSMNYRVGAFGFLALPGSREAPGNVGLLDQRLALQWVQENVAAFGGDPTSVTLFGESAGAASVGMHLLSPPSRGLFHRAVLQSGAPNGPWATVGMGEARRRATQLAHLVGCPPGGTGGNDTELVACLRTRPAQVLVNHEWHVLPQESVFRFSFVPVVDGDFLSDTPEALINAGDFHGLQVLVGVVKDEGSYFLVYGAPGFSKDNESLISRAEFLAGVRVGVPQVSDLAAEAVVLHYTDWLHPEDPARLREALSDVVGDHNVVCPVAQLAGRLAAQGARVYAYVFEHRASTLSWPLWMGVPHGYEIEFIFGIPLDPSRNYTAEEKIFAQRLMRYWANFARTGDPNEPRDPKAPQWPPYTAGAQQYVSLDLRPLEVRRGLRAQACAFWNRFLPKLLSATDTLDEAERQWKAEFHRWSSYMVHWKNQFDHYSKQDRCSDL
# method: Competitive inhibition of human AChE using acetyl thiocholine iodide as substrate by Lineweaver-Burk double-reciprocal analysis

- molecule: "COc1ccc2c(c[n+](C)c3c4cc5c(cc4ccc23)OCO5)c1OC [CHELERYTHRINE CHLORIDE]"
  Ki: "320 nM"

* * *

# assayed.target: UniProt:O42275
# measurement.setup: at 2 mg/mL
Threshold check on inhibition: at or above 20% gives 1, strictly below gives -1.

- chemical.smiles: "CO[C@H]1C=C2CCN(C)[C@H]2[C@@H]2c3cc4c(cc3C(=O)O[C@@H]21)OCO4"
  category.label: 1
- chemical.smiles: "O=c1cc(-c2ccccc2)oc2cc(O)c(O)c(O)c12"
  category.label: -1
- chemical.smiles: "Cc1cc(Cc2cc(C)cc(C(C)(C)C)c2O)c(O)c(C(C)(C)C)c1"
  category.label: -1
- chemical.smiles: "OC[C@H]1O[C@@H](Oc2ccc(O)cc2)[C@H](O)[C@@H](O)[C@@H]1O"
  category.label: -1
- chemical.smiles: "O=C(CCc1ccc(O)cc1)c1c(O)cc(O)cc1O[C@@H]1O[C@H](CO)[C@@H](O)[C@H](O)[C@H]1O"
  category.label: -1
- chemical.smiles: "CN[C@@H]1[C@H](O)[C@H](NC)[C@H]2O[C@@]3(O)C(=O)C[C@@H](C)O[C@H]3O[C@@H]2[C@H]1O"
  category.label: -1
- chemical.smiles: "COc1cc2c(c(OC)c1OC)-c1c(cc(OC)c(OC)c1OC)C[C@H](C)[C@H](C)C2"
  category.label: -1
- chemical.smiles: "COC1=C[C@@H](C)[C@@H]2C[C@H]3OC(=O)C[C@H]4C(C)=C(OC)C(=O)[C@H]([C@@]2(C)C1=O)[C@@]34C"
  category.label: 1
- chemical.smiles: "O=c1cc(-c2ccc(O)cc2)oc2cc(O)cc(O)c12"
  category.label: -1

* * *

# assayed.target: Cholinesterase (Equus caballus) (UniProt P81908)
# Sequence (P81908 whole entry): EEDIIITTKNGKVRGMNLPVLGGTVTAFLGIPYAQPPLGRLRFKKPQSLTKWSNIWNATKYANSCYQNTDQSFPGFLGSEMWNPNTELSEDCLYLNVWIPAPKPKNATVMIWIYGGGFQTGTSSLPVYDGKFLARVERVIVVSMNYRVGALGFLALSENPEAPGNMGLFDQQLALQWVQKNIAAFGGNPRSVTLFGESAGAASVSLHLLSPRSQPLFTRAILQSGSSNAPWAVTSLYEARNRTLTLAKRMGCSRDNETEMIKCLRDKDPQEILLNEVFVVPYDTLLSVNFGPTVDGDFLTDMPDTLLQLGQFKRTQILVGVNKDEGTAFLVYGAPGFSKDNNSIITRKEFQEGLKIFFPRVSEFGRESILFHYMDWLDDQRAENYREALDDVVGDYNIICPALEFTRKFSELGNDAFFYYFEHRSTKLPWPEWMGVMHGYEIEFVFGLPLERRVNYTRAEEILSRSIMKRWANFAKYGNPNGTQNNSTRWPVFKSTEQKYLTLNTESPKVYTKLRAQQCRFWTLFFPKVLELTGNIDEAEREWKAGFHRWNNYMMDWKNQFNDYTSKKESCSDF
# measurement.setup: at 2 mg/mL
Measured inhibition of individual entries
assay.readout: inhibition (%)

- compound: "COc1cc2c(cc1CC=C(C)C)C(=O)C[C@@H](c1ccc(O)cc1)O2"
  assayed.target: "Cholinesterase (Equus caballus) (UniProt P81908)"
  display.unit: "%"
  result.value: 4.89
- compound: "O=C1c2cccc(O)c2C(=O)c2c(O)cc(CO)cc21"
  assayed.target: "Cholinesterase (Equus caballus) (UniProt P81908)"
  display.unit: "%"
  result.value: -0.88
- compound: "COc1ccc([C@@H]2CC(=O)c3c(O)cc(O[C@@H]4O[C@H](CO)[C@@H](O)[C@H](O)[C@H]4O[C@@H]4O[C@@H](C)[C@H](O)[C@@H](O)[C@H]4O)cc3O2)cc1O"
  assayed.target: "Cholinesterase (Equus caballus) (UniProt P81908)"
  display.unit: "%"
  result.value: 0.1
- compound: "CN(C)c1ccc(O)c2c1C[C@H]1C[C@H]3[C@H](N(C)C)C(O)=C(C(N)=O)C(=O)[C@@]3(O)C(O)=C1C2=O"
  assayed.target: "Cholinesterase (Equus caballus) (UniProt P81908)"
  display.unit: "%"
  result.value: -8.62
- compound: "O=C1C[C@@H](c2ccc(O)c(O)c2)Oc2cc(O)cc(O)c21"
  assayed.target: "Cholinesterase (Equus caballus) (UniProt P81908)"
  display.unit: "%"
  result.value: -0.11
- compound: "CC[C@@]1(O)C(=O)OCc2c1cc1n(c2=O)Cc2cc3ccccc3nc2-1"
  assayed.target: "Cholinesterase (Equus caballus) (UniProt P81908)"
  display.unit: "%"
  result.value: 3.9
- compound: "CCC[C@@H]1C[C@@H](C(=O)N[C@@H]([C@H]2O[C@H](SC)[C@H](O)[C@@H](O)[C@H]2O)[C@@H](C)O)N(C)C1"
  assayed.target: "Cholinesterase (Equus caballus) (UniProt P81908)"
  display.unit: "%"
  result.value: -2.36
- compound: "CC(C)[C@@]1(O)[C@@H](OC(=O)c2cc[nH]c2)[C@@]2(O)[C@]3(C)C[C@@]4(O)O[C@@]5([C@H](O)[C@@H](C)CC[C@]35O)[C@@]2(O)[C@@]41C"
  assayed.target: "Cholinesterase (Equus caballus) (UniProt P81908)"
  display.unit: "%"
  result.value: -2.13
- compound: "CN(C)Cc1c[nH]c2ccccc12"
  assayed.target: "Cholinesterase (Equus caballus) (UniProt P81908)"
  display.unit: "%"
  result.value: 10.6
- compound: "C/C=C(\\C)C(=O)O[C@H]1CC(C)=CC(=O)[C@@]2(C)CC[C@@](O)(C(C)C)[C@H]12"
  assayed.target: "Cholinesterase (Equus caballus) (UniProt P81908)"
  display.unit: "%"
  result.value: -1.66
- compound: "CN1[C@@H]2CC[C@H]1C[C@@H](OC(=O)C(CO)c1ccccc1)C2 (stereo partly specified)"
  assayed.target: "Cholinesterase (Equus caballus) (UniProt P81908)"
  display.unit: "%"
  result.value: 4.01
- compound: "CCCC(=O)O[C@@H]1[C@@H](C)[C@@]2(O)[C@@H](C=C(CO)C[C@]3(O)C(=O)C(C)=C[C@@H]23)[C@@H]2C(C)(C)[C@]12OC(=O)CCC (stereo in doubt; form 2)"
  assayed.target: "Cholinesterase (Equus caballus) (UniProt P81908)"
  display.unit: "%"
  result.value: 5.87
- compound: "COc1cc2c3cc1Oc1cc(ccc1O)C[C@@H]1c4c(cc(OC)c(O)c4Oc4ccc(cc4)C[C@@H]3N(C)CC2)CC[N+]1(C)C"
  assayed.target: "Cholinesterase (Equus caballus) (UniProt P81908)"
  display.unit: "%"
  result.value: 3.03
- compound: "CCCCC[C@H](O)/C=C/[C@H]1[C@H](O)CC(=O)[C@@H]1C/C=C\\CCCC(=O)O"
  assayed.target: "Cholinesterase (Equus caballus) (UniProt P81908)"
  display.unit: "%"
  result.value: -2.38
- compound: "C[C@@H]1O[C@@H](OC[C@H]2O[C@@H](Oc3cc(O)c4c(=O)cc(-c5ccc(O)cc5)oc4c3)[C@H](O)[C@@H](O)[C@@H]2O)[C@H](O)[C@H](O)[C@H]1O"
  assayed.target: "Cholinesterase (Equus caballus) (UniProt P81908)"
  display.unit: "%"
  result.value: -5.05
- compound: "O=c1c(O[C@@H]2O[C@H](CO)[C@@H](O)[C@H](O)[C@H]2O)c(-c2ccc(O)c(O)c2)oc2cc(O)cc(O)c12"
  assayed.target: "Cholinesterase (Equus caballus) (UniProt P81908)"
  display.unit: "%"
  result.value: 2.54
